target desc: Single-strand selective monofunctional uracil DNA glycosylase (Homo sapiens) (UniProt Q53HV7);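 also: enzymatic SMUG1 assay coupled with APE1, reading fluorescence at 594 nm released when a quenched double-stranded DNA oligonucleotide substrate is cleaved and separated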
Sequence (Q53HV7 whole entry): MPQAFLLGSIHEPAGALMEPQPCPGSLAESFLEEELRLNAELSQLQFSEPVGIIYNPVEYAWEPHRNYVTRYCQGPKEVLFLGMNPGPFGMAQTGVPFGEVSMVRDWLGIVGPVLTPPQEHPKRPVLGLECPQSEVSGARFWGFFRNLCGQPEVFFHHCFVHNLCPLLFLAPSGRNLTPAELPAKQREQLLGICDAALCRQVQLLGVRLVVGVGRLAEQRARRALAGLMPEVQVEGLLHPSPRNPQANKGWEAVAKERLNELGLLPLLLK
experimental parameters: Compound Concentration 10.0 uM, Hit No
Recorded measurements of inhibition, one per entry
Respond with the bare value in %.

OC1(c2ccc(Cl)cc2)CCN(Cc2c[nH]c3ccccc23)CC1; -1.92
O=C(O)c1ccnc(N2CC(O)(c3ccc(OCc4c(-c5c(Cl)cccc5Cl)noc4C4CC4)cc3Cl)C2)c1; 16.5
C[C@@H]1CN(c2cc(-c3nn(C)c4ccc(OC5(C)CC5)cc34)ncn2)C[C@H](C)O1; 15.6

Give the value of inhibition reported for the following: N[C@@H](Cn1cc(F)c(=O)[nH]c1=O)C(=O)O
-7.64

Give the value of inhibition reported for the following: COc1cc(N)c(Cl)cc1C(=O)NC1CN2CCC1CC2 (stereo not given)
-3.07

Give the value of inhibition reported for the following: CC(C)c1cc(-c2ccc(F)c3ccccc23)nc(N)n1
-9.82

Give the value of inhibition reported for the following: CCC(=O)Nc1cccc(Oc2nc(Nc3ccc(N4CCN(C)CC4)cc3OC)ncc2Cl)c1
21.8

Give the value of inhibition reported for the following: Cc1c(-c2cc(-c3ccccc3Cl)no2)cnn1C1CCNCC1
-1.2

Give the value of inhibition reported for the following: COc1cc(OC2CCN(C(C)=O)CC2)ccc1C(=O)N1CCC(N2C(=O)OCc3ccccc32)CC1
-0.579

Give the value of inhibition reported for the following: O=C(O)c1ccc2c(c1)nc(Nc1cccc(Cl)c1)c1ccncc12
17.2

###

target desc: Methyl-CpG-binding domain protein 4 (Homo sapiens)
experimental parameters: Compound Concentration 10.0 uM, Hit No
quantity measured: inhibition (%)
Respond with the bare value in %.

Some compounds with known inhibition results, for comparison:
O=C(O)COc1cccc(-c2ocnc2-c2nc(-c3ccccc3)c(-c3ccccc3)o2)c1; 49.9
COCCn1c(C)c(C)s/c1=N\C(=O)C1C(C)(C)C1(C)C; -7.23
COc1ccc2c(c1)O[C@@H](c1ccc(OC)c(OC)c1)C[C@H]2NC(=O)C1(c2ccc3c(c2)OC(F)(F)O3)CC1; 35.4
Nc1nc(NCc2ccccc2)nc(-c2cccc(CO)c2)n1; 54
CCCCN(Cc1ccccc1)C(=O)c1ccc(S(=O)(=O)Nc2ccccc2)cc1; -4.89
COC(=O)c1sccc1S(=O)(=O)Nc1ccc(Nc2ccccc2)cc1OC; 58
OC(c1ccc(-c2ccc(CN3CCN(Cc4ccncc4)CC3)cc2)c(F)c1)(C(F)(F)F)C(F)(F)F; 47.6
CCn1c(CNC(=O)c2nc(Cl)cnc2N)[n+](CC)c2ccc(C(=O)N(C)CCN(C)C)cc21; 53.4

Please tell me the measured inhibition for Cc1nc(-c2ccc(C(F)(F)F)cc2)sc1C(=O)NCc1ccc(OC(C)(C)C(=O)O)cc1 ; system: Methyl-CpG-binding domain protein 4 (Homo sapiens).
62.8

Please tell me the measured inhibition for C=C1/C(=C\C=C2/CCC[C@]3(C)[C@@H]([C@H](C)CCCC(C)(C)O)CC[C@@H]23)C[C@@H](O)C[C@@H]1O ; system: Methyl-CpG-binding domain protein 4 (Homo sapiens).
57

Please tell me the measured inhibition for COc1ccc(CC[C@@H](OC(=O)[C@@H]2CCCCN2C(=O)[C@H](c2cc(OC)c(OC)c(OC)c2)C2CCCCC2)c2cccc(OCCN3CCOCC3)c2)cc1OC ; system: Methyl-CpG-binding domain protein 4 (Homo sapiens).
43.3

Please tell me the measured inhibition for N[C@@]1(C(=O)O)CC[C@H]2[C@H](C(=O)O)[C@H]21 ; system: Methyl-CpG-binding domain protein 4 (Homo sapiens).
2.62

Please tell me the measured inhibition for CN1CCc2cc(Cl)c(O)cc2[C@@H](c2ccccc2)C1 ; system: Methyl-CpG-binding domain protein 4 (Homo sapiens).
14.5

Please tell me the measured inhibition for c1cnc2cc3c(cc2n1)[C@@H]1CNC[C@H]3C1 ; system: Methyl-CpG-binding domain protein 4 (Homo sapiens).
15.3

Please tell me the measured inhibition for CCN(Cc1ccc(Cl)cc1)c1ncc(C(=O)NCCCN2CCCC2=O)c(NC2CCCC2)n1 ; system: Methyl-CpG-binding domain protein 4 (Homo sapiens).
-8.97

Please tell me the measured inhibition for Cc1cc(C)c(N)c(C#Cc2cccc(F)c2)n1 ; system: Methyl-CpG-binding domain protein 4 (Homo sapiens).
6.71

Please tell me the measured inhibition for C[C@@]1(Cc2ccc(C#N)cc2)C(=O)N(c2cc(Cl)cc(Cl)c2)c2ncc(C(=O)NC3(c4nc(C5CCC5)no4)CC3)n21 ; system: Methyl-CpG-binding domain protein 4 (Homo sapiens).
57.2

Please tell me the measured inhibition for N=C(N)SCCc1c[nH]cn1 ; system: Methyl-CpG-binding domain protein 4 (Homo sapiens).
11.4

Please tell me the measured inhibition for CC(C)(C)C1CCc2c(sc(NC(=O)c3ccco3)c2C(=O)O)C1 (centres undefined) ; system: Methyl-CpG-binding domain protein 4 (Homo sapiens).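 Also: MBD4 activity read as fluorescence at 594 nm from cleavage and release of a quenched duplex DNA oligonucleotide, with APE1 coupled to incise the strand and raise turnover.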
32.2

###

target desc: N-glycosylase/DNA lyase (Homo sapiens) (UniProt O15527)
Sequence (O15527 whole entry): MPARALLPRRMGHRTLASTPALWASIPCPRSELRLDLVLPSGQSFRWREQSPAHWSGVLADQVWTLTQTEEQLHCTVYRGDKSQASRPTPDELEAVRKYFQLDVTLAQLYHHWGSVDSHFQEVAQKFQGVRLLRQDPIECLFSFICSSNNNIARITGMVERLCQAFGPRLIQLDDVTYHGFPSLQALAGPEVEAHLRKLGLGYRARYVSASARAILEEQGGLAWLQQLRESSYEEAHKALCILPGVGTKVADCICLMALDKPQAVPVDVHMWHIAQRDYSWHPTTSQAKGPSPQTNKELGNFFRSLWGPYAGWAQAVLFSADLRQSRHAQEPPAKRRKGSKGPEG
experimental parameters: Compound Concentration 10.0 uM, Hit No
quantity measured: inhibition (%)
Respond with the bare value in %.

Some molecules with known inhibition results, for comparison:
Nc1nc2c(c(N3CCNCC3)n1)CCC1=C2[C@@H]2CCCC[C@@H]2O1; -5.22
Oc1cc2c(cc1O)CN(C(=S)NCCc1ccc(Cl)cc1)CCC2; -1.56
CC#CC(=O)N1CCC[C@H]1c1nc(-c2ccc(C(=O)Nc3ccccn3)cc2)c2c(N)nccn12; 1.98
CC1CCN(c2ccnc(NCc3cn(C)cn3)n2)CC1; 19.9
C[C@@H](NCCc1ccc(O)cc1)[C@@H](O)c1ccc(O)cc1 (relative stereo); -4.18

Give the value of inhibition reported for the following: C=C1/C(=C\C=C2/CCC[C@]3(C)[C@@H]([C@H](C)CCCC(C)(C)O)CC[C@@H]23)C[C@@H](O)C[C@@H]1O
10.5

Give the value of inhibition reported for the following: Cc1ccccc1C(=O)Nc1ccc(C(=O)N2CCCC(O)c3cc(Cl)ccc32)c(C)c1 (centres undefined)
-1.2

Give the value of inhibition reported for the following: CC1=C2C[C@H]3[C@@H](CC=C4C[C@@H](O)CC[C@@]43C)[C@@H]2CC[C@]12O[C@@H]1C[C@H](C)CN[C@H]1[C@H]2C
-3.73

Give the value of inhibition reported for the following: N=C(N)NCCSC(=N)N
-4.9

###

target desc: N-glycosylase/DNA lyase (Homo sapiens);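 also: OGG1 cleavage of a quenched duplex DNA oligonucleotide, coupled to APE1 for strand incision, read as fluorescence at 594 nm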
experimental parameters: Compound Concentration 10.0 uM, Hit No
quantity measured: inhibition (%)
Respond with the bare value in %.

CN(CCOc1ccc(C[C@H](Nc2ccccc2C(=O)c2ccccc2)C(=O)O)cc1)c1ccccn1; 24.7
CCCN[C@H]1CCc2nc(N)sc2C1; -6.43
Cc1cc(Cn2cnc3c2C[C@@H](C(=O)O)N(C(=O)C(c2ccccc2)c2ccccc2)C3)ccc1N(C)C; 5.17
CSc1nc(NC2CCCC2)c([N+](=O)[O-])c(NC2CCCC2)n1; -2.94
COC(=O)C1=C(C)NC(C)=C(C(=O)OC(C)C)C1c1cccc2nonc12 (stereo not drawn); -6.65

Give the value of inhibition reported for the following: O=C(NCc1ncc(C(F)(F)F)cc1Cl)c1ccc2c(c1)C1(CCS(=O)(=O)CC1)[C@@H](C1CC1)N2S(=O)(=O)c1ccc(F)cc1
3.62

Give the value of inhibition reported for the following: Cc1c(N2CCNCC2)nc2ccc(Br)cc2c1C(=O)NC[C@H](CCC(=O)O)c1ccccc1Cl
-2.82

Give the value of inhibition reported for the following: C[C@H](NC(=O)CNC(=O)c1cccc(Cl)c1)c1ccccc1
-9.41

###

target desc: Endonuclease 8-like 2 (Homo sapiens);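 also: fluorescence at 594 nm reports NEIL2 cutting and release of a quenched double-stranded DNA oligo substrate, reduced signal read as inhibition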
experimental parameters: Compound Concentration 10.0 uM, Hit No
Recorded measurements of inhibition, one per entry
Respond with the bare value in %.

Some molecules with known inhibition results, for comparison:
CN(C)c1ncc2cc(-c3ccc(-c4ncccc4F)cc3Cl)c(=O)n(C[C@H]3OC[C@H](N)CO3)c2n1; 1.58
Cc1ccc(Cn2nc(C(=O)N[C@@H]3C(C)(C)[C@@H]4CC[C@@]3(C)C4)cc2-c2ccc(Cl)c(C)c2)cc1; 7
CCS(=O)(=O)c1cc2cc(C[C@](O)(CC(C)(C)c3ccc(F)cc3C(N)=O)C(F)(F)F)[nH]c2cn1; -8.14
Oc1c(CN2CCN(c3ccccn3)CC2)cc(Cl)c2cccnc12; 7.5
Cn1c(=O)n(CCCO)c(=O)c2c1nc(Oc1cccc(OC(F)(F)F)c1)n2Cc1ccc(Cl)cc1; -7.23
C[C@]1(C(=O)N(CCCC(=O)O)Cc2cccc(Cl)c2)CCN1C(=O)c1csc2ccccc12; -3.73

Give the value of inhibition reported for the following: C[C@@H](c1cccc(C#N)c1)n1cc(Cl)cc(C(N)=O)c1=N
12

Give the value of inhibition reported for the following: CS(=O)(=O)c1ccc(C(=O)Nc2ccc(Cl)c(-c3ccccn3)c2)c(Cl)c1
5.76

Give the value of inhibition reported for the following: CCOC(=O)N1CCC(NS(=O)(=O)c2ccc(NC(=O)c3ccccc3C)c3ccccc23)CC1
3.73

Give the value of inhibition reported for the following: CCCCCCCCCCCCC/C=C/[C@@H](O)[C@@H](N)COP(=O)(O)O
6.5

Give the value of inhibition reported for the following: COCCOCCn1nc2c(c1C)-c1c(Cl)ccc3c1c(C)c(C(=O)O)n3CCCOc1cc(cc3c(F)c(Cl)ccc13)CCc1cc(nn1C)CSC2
5.63
